- targetOfAssay: T1, Ebola virus GP with a C-terminal polyhistidine tag (Sino Biologicals, Catalog #40442-V08B1) (Ebola virus, UniProt P87666 33-650)
- T1 construct: also called EbolaGP.his; Ebola virus GP.his
- protocolDetails: SPR 37C, mAb captured, pH chase
Hi there, I'd appreciate the recorded t½ ratio pH 7.4/pH 6.0 for every entry that follows.
Please state the value as a number alone, without comment.

query: GET /values?readout=t½ ratio pH 7.4/pH 6.0&item= H1H17203P (antibody, V domains shown) VH: QVQLVESGGGVVQPGRSLRLSCAASGFTFNNYGMHWVRQAPGMGLEWVAVIWHDGSDKYYADSVKGRFTISRDNSKNTLYLQMNSLRAEDTAVYYCARNWNLFDYWGQGTLVTVSS VL: DIQMTQSPSSLSASVGDRITITCRASQSISTYLHWYQQKPGKAPKLLIYAASTLQSGVPSRFSGSGSGTDFTLTISSLQPEDFATYYCQQSFSTPPINFGQGTKLEIK
result: 0.2

query: GET /values?readout=t½ ratio pH 7.4/pH 6.0&item= H1H17214P (antibody, V domains shown) VH: EVQLVESGGGLVQPGGSLRLSCAASKFTFDTFAMSWVRQAPGKGLEWVSFISSSGGRTDYVDSVKGRFTISRDNSKNTLYLQMNSLRAEDTAVYYCAKERTIFGVLILGPDNYGMDVWGQGTTVTVSS VL: DIQMTQSPSSLSAFVGDRVTITCRASQSISTYLNWYQQKPGKAPKLLIYAASSLQSGVSSRFSGSGSGTDFTLTISSLQPEDFATYYCQQSYSAPPITFGQGTRLEIK
result: 1

query: GET /values?readout=t½ ratio pH 7.4/pH 6.0&item= H1H17142P (antibody, V domains shown) VH: EVQLVESGGGLVQPGGSLRLSCAASGFTFSSYAMTWVRQAPGKGLEWVSSISGSGTSTYYADSVKGRFTISRDNSKNTLYLQMNSLRAEDTALYYCSRDIYTWNFLSLIGGMDVWGQGTTVTVSS VL: DIQMTQSPSSLSASVGDRVTITCRASQGIRIDLGWYQQKPGKAPNRLIYAASSLQGGVPSRFSGSGSGTEFTLTISSLQPEDFATYYCLQQNSYPWTFGQGTKVEIK
result: 0.5

query: GET /values?readout=t½ ratio pH 7.4/pH 6.0&item= H1H17162P (antibody, V domains shown) VH: EVQLVESGGGLVQPGGSLRLSCAASEFTFSSYAMSWVRQAPGKGLEWVSAISGSSGSTYYADSVKGRFTISRDNSKKTLYLQMNSLRVEDTAVYYCAKGGYPHSFDIWGHGTMVTVSS VL: DIQMTQSPSSLSASVGDRVTITCRASQSISSFLNWYQQKPGKAPKLLIYAASSLQSGVPSRFSGSGSGTDFTLTISSLQPEDFATYYCQQSYSSITFGQGTRLEIK
result: 0.3
